# studyTarget: Recombinant bovine HSC70 (Stressgen) (bovine) (UniProt P19120)
# Sequence (P19120 whole entry): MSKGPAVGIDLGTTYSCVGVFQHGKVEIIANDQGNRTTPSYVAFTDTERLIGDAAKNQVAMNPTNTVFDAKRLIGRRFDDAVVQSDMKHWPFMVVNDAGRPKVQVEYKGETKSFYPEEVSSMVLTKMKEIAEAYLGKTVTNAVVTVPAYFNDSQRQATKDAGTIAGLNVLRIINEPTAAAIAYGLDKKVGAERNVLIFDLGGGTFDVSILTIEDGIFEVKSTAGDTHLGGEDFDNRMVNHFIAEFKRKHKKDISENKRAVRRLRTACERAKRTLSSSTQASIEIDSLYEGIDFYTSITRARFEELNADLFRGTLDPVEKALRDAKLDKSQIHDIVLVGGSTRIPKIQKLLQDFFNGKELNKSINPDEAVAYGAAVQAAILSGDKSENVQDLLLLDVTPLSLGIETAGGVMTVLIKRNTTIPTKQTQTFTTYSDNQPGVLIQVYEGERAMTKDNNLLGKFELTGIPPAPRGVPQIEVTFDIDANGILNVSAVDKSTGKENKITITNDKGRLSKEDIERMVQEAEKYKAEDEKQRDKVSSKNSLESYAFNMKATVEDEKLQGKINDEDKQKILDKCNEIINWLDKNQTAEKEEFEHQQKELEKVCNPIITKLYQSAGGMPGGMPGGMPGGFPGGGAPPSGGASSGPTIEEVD
# protocolSummary: SPR (BIAcore 3000), bovine HSC70 immobilized, peptide at 1.56 µM, 1:1 Langmuir fit
Where no end group is shown, it is not given here. [ ]: non-standard residue; d: D form. Met(O) = CS(=O)CC[C@H](N)C(=O)O; pS = N[C@@H](COP(=O)(O)O)C(=O)O
Please respond with reported Kd for every item in the list.
For clarity, give the value followed by its unit.

binder	Kd
RIHMVYSKR[pS]GKPRGYAFIEY [P140 peptide (peptide consisting of SEQ ID NO: 1, in which serine at position 10 is phosphorylated)]	6.94 µM

For the next question, use this binder.
Req: If you can, please state the reported Kd value of RIH[Met(O)]VYSKR[pS]GKPRGYAFIEY .
Resp: 1.91 µM
